Tested on: SK-MEL-2 melanoma
Protocol Notes: NCI-60 one-dose screen, 48 h
Condition: 10 µM unless noted
Description: Growth inhibition of the SK-MEL-2 human tumor cell line is measured as a screen for anti-cancer activity. Cells are grown in 96 well plates and exposed to the test compound for 48 hours. Compounds are tested at a single concentration, which is 10^-5 M for most compounds. The reported endpoint is percent growth (GI% or GIPRCNT), where numbers from 0 - 100% represent growth inhibition, and numbers from -100% - 0 represent cell death. For example, a value of 40 represents 60% growth inhibition. […]
Compounds without any hit were thinned out: in the full panel of roughly 83,000, 20% have a hit. Calls of active or inactive are those of the source. How the source made its calls: active means growth percent below 10; inactive means the rest.
Labels: true (1) for active, false (0) for inactive

{"Compound": "CC1=C(C)C(=O)C(Nc2cccc(C(=O)OC(C)(C)C)c2)=C(Cl)C1=O", "Assigned Label": "false (0)"}
{"Compound": "CC(=C(c1ccc(OCCN2CCCC2)cc1)c1ccc(OCCN2CCCC2)cc1)c1ccc(Cl)cc1", "Assigned Label": "true (1)"}
{"Compound": "Cc1ccc(-c2nc(SCC(=O)c3ccccc3)nc(Nc3ccc(S(N)(=O)=O)cc3)c2C#N)cc1", "Assigned Label": "false (0)"}
{"Compound": "C#C[C@]1(O)CC[C@H]2[C@@H]3CC=C4c5sc(Nc6ncccc6C)nc5CC[C@]4(C)[C@H]3CC[C@@]21C", "Assigned Label": "true (1)"}
{"Compound": "COC(=O)CCSC1=C(C)C(=O)c2ccccc2C1=O", "Assigned Label": "false (0)"}
{"Compound": "O=C1Nc2ccccc2/C1=N\\c1nnc(-c2ccccc2)o1", "Assigned Label": "false (0)"}
{"Compound": "COC(=O)c1ccc(NC2=C(Cl)C(=O)C(C)=C(C)C2=O)cc1", "Assigned Label": "false (0)"}
{"Compound": "O=C(Nc1ccc(N2CCOCC2)cc1)Nc1ccc2c(ccn2C(=O)c2cccc(F)c2)c1", "Assigned Label": "false (0)"}
{"Compound": "CCNC(=O)Oc1ccc(/C(=C(/C)c2ccc(OC)cc2)c2ccc(OCCN3CCCCCC3)cc2)cc1", "Assigned Label": "false (0)"}
{"Compound": "COc1ccc(OC)c(CCn2cncc2-c2c[nH]c3ccc(Cl)cc23)c1", "Assigned Label": "false (0)"}
{"Compound": "NS(=O)(=O)c1ccc(Nc2nc(N/N=C/C=C/c3ccccc3)nc(Nc3ccccc3)n2)cc1", "Assigned Label": "false (0)"}
{"Compound": "CN1CCN(Cc2ccc(NC(=O)c3cncc(C#Cc4cnc5ccc(OCC(F)F)nn45)c3)cc2C(F)(F)F)CC1", "Assigned Label": "true (1)"}
{"Compound": "O=C(CCCCCCNC(=O)c1csc(Br)n1)NO", "Assigned Label": "false (0)"}
{"Compound": "O=C(N/N=C/c1cc2ccccc2nc1Cl)c1cc(-c2nc3ccccc3[nH]2)nc2ccccc12", "Assigned Label": "false (0)"}
{"Compound": "Clc1ccc(CSc2nnc(-c3ccc(Cl)cc3)n2-c2ccccc2)cc1", "Assigned Label": "false (0)"}
{"Compound": "CCCCCC[n+]1ccc(SCC(=O)n2ccc3ccccc32)c2ccccc21", "Assigned Label": "false (0)"}
{"Compound": "CN1CCN(c2ccc(Nc3nc(NCCNC(=O)c4ccccc4)c4sccc4n3)cc2)CC1", "Assigned Label": "false (0)"}
{"Compound": "Cc1[nH]c(C(=O)Nc2ccccc2OCc2cccc(C(=O)NC3CCNC3)c2)c(Cl)c1Cl (stereo not drawn)", "Assigned Label": "false (0)"}
{"Compound": "CCCCc1nc2c(N)nc3ccccc3c2n1Cc1ccc(OC)cc1", "Assigned Label": "false (0)"}
{"Compound": "Cc1[nH]c(C(=O)Nc2ccc(S(=O)(=O)N3CCCCC3)cc2OCCOCCOCCOCCOCCOCCOCCOCCOCCOc2cc(S(=O)(=O)N3CCCCC3)ccc2NC(=O)c2[nH]c(C)c3c2CCCCC3=O)c2c1C(=O)CCCC2", "Assigned Label": "true (1)"}
{"Compound": "Cc1ccc(Nc2nc(SC(C)C)nc(-c3ccccc3)c2C#N)cc1", "Assigned Label": "false (0)"}
{"Compound": "COC(=O)c1cccc(NC2=C(Cl)C(=O)c3nc(C)ccc3C2=O)c1", "Assigned Label": "false (0)"}
{"Compound": "COc1cc2cc(Oc3ccc(NC(=O)Nc4ccc(F)c(C(F)(F)F)c4)cc3)c(C)nc2cc1OCCN(C)C", "Assigned Label": "false (0)"}
{"Compound": "CCCc1[nH]c(-c2cc(N)ccc2Cl)c2c1C(=O)CCCC2", "Assigned Label": "false (0)"}
{"Compound": "COc1ccc(N2CCN(C3=C(Cl)C(=O)c4ncccc4C3=O)CC2)cc1", "Assigned Label": "false (0)"}
{"Compound": "Brc1ccc(-c2cc(-c3ccc4c(c3)OC=CO4)n[nH]2)s1", "Assigned Label": "false (0)"}
{"Compound": "O=c1oc2ccc(-c3ccc(F)cc3F)cc2c(=O)n1-c1ccc(Br)cc1F", "Assigned Label": "false (0)"}
{"Compound": "O=C(Nc1ccc(Cl)c(C(F)(F)F)c1)Nc1ccc2oc(=O)ccc2c1", "Assigned Label": "false (0)"}
{"Compound": "COc1cc(C(=O)c2cc(C(C)=O)c3cccc(C)n23)cc(OC)c1OC", "Assigned Label": "true (1)"}
{"Compound": "CNC(=O)c1cc(-c2ccc(NC(=S)Nc3cccc(C(F)(F)F)c3)cc2)nc2cccnc12", "Assigned Label": "false (0)"}
{"Compound": "COc1cc(-c2nc(-c3ccccc3)[nH]c2-c2ccnc(NCCCNS(=O)(=O)c3ccc(C)cc3)n2)ccc1F", "Assigned Label": "false (0)"}
{"Compound": "Oc1[nH]c2ccc(Cl)cc2c1N=Nc1nc(N=Nc2c(O)[nH]c3ccc(Cl)cc23)nc(N2CCCCC2)n1", "Assigned Label": "false (0)"}
{"Compound": "COc1ccc(C(C)=C(c2ccc(OCCN(C)C)cc2)c2ccc(OCCN(C)C)cc2)cc1", "Assigned Label": "true (1)"}
{"Compound": "CCOC(=O)Nc1ccc2c(ccn2C(=O)c2cccc(F)c2)c1", "Assigned Label": "false (0)"}
{"Compound": "Cc1cc(=O)oc2cc(OCCCOc3ccc(/C=C/C(=O)Nc4ccc(Br)cc4)cc3)ccc12", "Assigned Label": "false (0)"}
{"Compound": "COc1ccc2[nH]cc(/C=N/Nc3ccnc4cc(Cl)ccc34)c2c1", "Assigned Label": "true (1)"}
{"Compound": "O=c1[nH][nH]c(-c2ccc(F)cc2)c1-c1nc2ccccc2s1", "Assigned Label": "false (0)"}
{"Compound": "O=C(Nc1ccc(Cl)c(C(F)(F)F)c1)Nc1ccc2c(ccn2C(=O)c2cccc(F)c2)c1", "Assigned Label": "false (0)"}
